These entries and their values trace back to ChEMBL document CHEMBL3045941.

Test system: Sorghum halepense
Assay: Post-emergent herbicidal activity against Sorghum halepense (Johnson grass) at <2 g/ha measured after 13 days under green house conditions
Assay type: functional, organism-based
Activity calls are given as the source filed them. The rule behind the calls is not given here.
value type: Activity

compound="CCOC(=O)C(C)Oc1ccc(N(C)c2cnc3cc(Cl)ccc3n2)cc1 (racemic)" target_system="Sorghum halepense" recorded_result=inactive
compound="CCCCOC(=O)C(C)Oc1ccc(Oc2ccc(C(F)(F)F)cn2)cc1 (racemic)" target_system="Sorghum halepense" recorded_result=inactive
compound="COC(=O)C(C)Oc1ccc(N(C)c2ccc(C(F)(F)F)cn2)cc1 (racemic)" target_system="Sorghum halepense" recorded_result=inactive

* * *

Tested on: Triticum aestivum
Experiment: Phytotoxicity against Triticum aestivum (wheat) at two to four-leaf growth stage at 50 g/ha measured after 13 days under green house conditions
Assay type: organism-based
Settings: in vivo, 312 h
value type: Activity (%)
// return numeric value only (unit: %, not printed)

What Activity appears in the records for this molecule with Triticum aestivum? CCOC(=O)C(C)Oc1ccc(Oc2nc3ccc(Cl)cc3o2)cc1 (racemic)
0

What Activity appears in the records for this molecule with Triticum aestivum? CCOC(=O)C(C)Oc1ccc(N(C)c2ncc3cc(Cl)ccc3n2)cc1 (racemic)
65

What Activity appears in the records for this molecule with Triticum aestivum? CCCCOC(=O)C(C)Oc1ccc(Oc2ccc(C(F)(F)F)cn2)cc1 (racemic)
70

What Activity appears in the records for this molecule with Triticum aestivum? CCOC(=O)C(C)Oc1ccc(Oc2cnc3cc(Cl)ccc3n2)cc1 (racemic)
85

What Activity appears in the records for this molecule with Triticum aestivum? COC(=O)C(C)Oc1ccc(N(C)c2nnc3cc(Cl)ccc3n2)cc1 (racemic)
85

* * *

Record form. Attribute: Activity. Fill in for each entry.
Test system: Triticum aestivum
Experiment: Phytotoxicity against Triticum aestivum (wheat) plant at two to four-leaf growth stage at 500 g/ha measured after 13 days under green house conditions
Assay type: organism-based
Conditions: in vivo, 312 h
// return numeric value only (unit: %, not printed)

Which Activity is reported for this compound? CCOC(=O)C(C)Oc1ccc(N(C)c2cnc3cc(Cl)ccc3n2)cc1 (racemic)
85

Which Activity is reported for this compound? COC(=O)C(C)Oc1ccc(N(C)c2ccc(C(F)(F)F)cn2)cc1 (racemic)
30

Which Activity is reported for this compound? COC(=O)C(C)Oc1ccc(N(C)c2ccc(Cl)cc2Cl)cc1 (racemic)
70

Which Activity is reported for this compound? COC(=O)C(C)Oc1ccc(Oc2ncc3cc(Cl)ccc3n2)cc1 (racemic)
0

Which Activity is reported for this compound? COC(=O)C(C)Oc1ccc(Oc2ccc(Cl)cc2Cl)cc1 (racemic) [DICLOFOP-METHYL]
0

Which Activity is reported for this compound? COC(=O)C(C)Oc1ccc(Oc2ccc3cc(Cl)ccc3n2)cc1 (racemic)
85

Which Activity is reported for this compound? CCOC(=O)C(C)Oc1ccc(Oc2cc3ccc(Cl)cc3cn2)cc1 (racemic)
85

Which Activity is reported for this compound? CCOC(=O)C(C)Oc1ccc(N(C)c2cc3ccc(Cl)cc3cn2)cc1 (racemic)
85

Which Activity is reported for this compound? COC(=O)C(C)Oc1ccc(Oc2nnc3cc(Cl)ccc3n2)cc1 (racemic)
0

Which Activity is reported for this compound? COC(=O)C(C)Oc1ccc(N(C)c2ccc3cc(Cl)ccc3n2)cc1 (racemic)
85

* * *

Record form. Attribute: Activity. Fill in for each entry.
Test system: Avena fatua
Assay: Post-emergent herbicidal activity against Avena fatua at 50 g/ha measured after 13 days under green house conditions
Assay type: functional
// return numeric value only (unit: %, not printed)

What Activity appears in the records for this molecule with Avena fatua? CCOC(=O)C(C)Oc1ccc(Oc2cnc3cc(Cl)ccc3n2)cc1 (racemic) [QUIZALOFOP ETHYL ESTER]
85

What Activity appears in the records for this molecule with Avena fatua? CCCCOC(=O)C(C)Oc1ccc(Oc2ccc(C(F)(F)F)cn2)cc1 (racemic)
85

What Activity appears in the records for this molecule with Avena fatua? CCOC(=O)C(C)Oc1ccc(N(C)c2ncc3cc(Cl)ccc3n2)cc1 (racemic)
15

What Activity appears in the records for this molecule with Avena fatua? CCOC(=O)C(C)Oc1ccc(Oc2nc3ccc(Cl)cc3o2)cc1 (racemic) [FENOXAPROP-ETHYL]
85

What Activity appears in the records for this molecule with Avena fatua? COC(=O)C(C)Oc1ccc(N(C)c2nnc3cc(Cl)ccc3n2)cc1 (racemic)
85

* * *

System: Zea mays
Assay: Phytotoxicity against Zea mays (maize) plant at two to four-leaf growth stage at 50 g/ha measured after 13 days under green house conditions
Type: organism-based
Details: in vivo, 312 h
value type: Activity (%)
// return numeric value only (unit: %, not printed)

What Activity appears in the records for this compound with Zea mays? CCOC(=O)C(C)Oc1ccc(Oc2cnc3cc(Cl)ccc3n2)cc1 (racemic)
100

What Activity appears in the records for this compound with Zea mays? COC(=O)C(C)Oc1ccc(N(C)c2nnc3cc(Cl)ccc3n2)cc1 (racemic)
85

What Activity appears in the records for this compound with Zea mays? CCCCOC(=O)C(C)Oc1ccc(Oc2ccc(C(F)(F)F)cn2)cc1 (racemic)
85
